src = patent US6858210B1

# Test system: affinity purified β2GPI-dependent antiphospholipid antibody
# assay-name: Competitive inhibition ELISA: recombinant β2GPI proteins compete for antibody binding to coated full length recombinant β2GPI
# Design: species or system human
# stated-conditions: Ab 6641
measurement-type: Max (maximum inhibition observed at concentrations tested)

# molecule, result-value
rows = [
    ("-2345: recombinant β2GPI deletion mutant with domains 2-5 (protein) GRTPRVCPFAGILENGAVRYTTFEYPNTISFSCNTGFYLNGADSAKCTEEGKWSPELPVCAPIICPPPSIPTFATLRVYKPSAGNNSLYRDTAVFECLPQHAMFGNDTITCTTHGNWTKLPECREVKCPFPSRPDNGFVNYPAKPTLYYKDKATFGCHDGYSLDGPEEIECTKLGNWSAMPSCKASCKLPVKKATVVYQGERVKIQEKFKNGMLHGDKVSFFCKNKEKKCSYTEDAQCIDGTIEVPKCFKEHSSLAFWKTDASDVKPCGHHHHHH", "20%"),
]

**Q:** Please supply the value of reported Max (maximum inhibition observed at concentrations tested) for the item 123--: recombinant β2GPI deletion mutant with domains 1, 2, 3 (protein) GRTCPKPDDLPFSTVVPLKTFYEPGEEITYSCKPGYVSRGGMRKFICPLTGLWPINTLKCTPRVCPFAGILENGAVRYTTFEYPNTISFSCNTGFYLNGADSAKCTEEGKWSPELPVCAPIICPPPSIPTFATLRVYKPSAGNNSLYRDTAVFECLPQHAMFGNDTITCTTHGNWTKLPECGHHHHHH
**A:** 60%

**Q:** Please supply the value of reported Max (maximum inhibition observed at concentrations tested) for the item ---45: recombinant β2GPI deletion mutant with domains 4, 5 (protein) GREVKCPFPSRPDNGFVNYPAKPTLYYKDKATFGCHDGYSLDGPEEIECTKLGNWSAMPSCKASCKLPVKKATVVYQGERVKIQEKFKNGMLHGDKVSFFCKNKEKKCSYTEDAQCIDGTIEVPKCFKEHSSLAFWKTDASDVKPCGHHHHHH
**A:** 20%

**Q:** Please supply the value of reported Max (maximum inhibition observed at concentrations tested) for the item recombinant β2GPI domain 5 with GlyHis6 (----5) (protein) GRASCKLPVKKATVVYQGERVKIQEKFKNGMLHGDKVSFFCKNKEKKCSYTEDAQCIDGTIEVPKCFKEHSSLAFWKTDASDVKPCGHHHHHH
**A:** 10%
